Tested on: MCF7 breast
ASSAY_REMARKS: NCI tumour cell line growth inhibition, 48 h; in the data active = GI50 below about 0.43 µM; inactive = the rest
Possible outcomes: active, inactive

MOLECULE: CC(=N\O)/C(C)=N/O.CC(=N\O)/C(C)=N/O.[Fe].[NH2-].c1c[nH]cn1
QUALITATIVE_LABEL: inactive

MOLECULE: Nc1no[n+]([O-])c1-c1nnc2c(n1)-c1ccccc1C2=O
QUALITATIVE_LABEL: inactive

MOLECULE: COc1cc(/C=C/c2ccnc3ccccc23)cc(OC)c1OC
QUALITATIVE_LABEL: inactive

MOLECULE: CC1(C)CC[C@]2(CO)CC[C@]3(C)C(=CC[C@@H]4[C@@]5(C)CCNCC(C)(C)[C@@H]5CC[C@]43C)[C@@H]2C1
QUALITATIVE_LABEL: inactive

MOLECULE: Cn1cc(-c2nc(-c3cn(C)c4ncccc34)cs2)c2ccccc21
QUALITATIVE_LABEL: active

MOLECULE: Cc1nn(-c2ccccc2)c2nc(C)n(-c3ccc(Br)cc3)c(=O)c12
QUALITATIVE_LABEL: active

MOLECULE: OCC1OC(n2cnc3c(NCc4ccccc4O)ncnc32)C(O)C1O (stereo not drawn)
QUALITATIVE_LABEL: inactive

MOLECULE: C=CCN1C(=O)[C@]2(SC1=S)[C@H](c1cccc(Cl)c1)CN(C)[C@]21C(=O)NC2C=CC(Cl)=C[C@H]21 (stereo partly drawn)
QUALITATIVE_LABEL: inactive
